B1: TSN (parent)
chain: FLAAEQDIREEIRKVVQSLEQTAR

Variants of: B1
Method Description: protein stability index of a GFP-peptide fusion (GPS, HEK-293T) (PSI 1-6); higher = more stable;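 also: lentivirally expressed fusions sorted by FACS into six bins by GFP to DsRed ratio, PSI derived from sequencing read proportions per bin multiplied by bin number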
Experimental Context: c terminus: a fixed tail appended
Assay Metric: protein stability index

# Mutations, Number
data = [
    ("A23C", 1.99),
    ("A3Y", 2.03),
    ("A3F", 2.02),
    ("E10Y", 1.96),
    ("D7N", 2.05),
    ("E10A", 2.11),
    ("F1E", 2.45),
    ("Q21M", 1.68),
    ("Q17K", 2.52),
    ("V16Y", 2.83),
    ("T22K", 1.95),
    ("L19F", 2.14),
    ("V15F", 2.96),
    ("I12Q", 4.06),
    ("R9G", 3.12),
    ("Q21F", 1.81),
    ("R9A", 1.48),
    ("T22R", 2.99),
    ("E11L", 2.19),
    ("L2S", 1.91),
    ("L19C", 4.16),
    ("E20P", 3.47),
    ("V15N", 3.76),
    ("E11D", 2.77),
    ("R13S", 2.12),
    ("E5C", 2.25),
    ("T22H", 1.67),
    ("Q17S", 2.78),
    ("A4Q", 2.09),
    ("T22A", 2.38),
    ("L19W", 3.12),
    ("S18Q", 2.24),
    ("E20M", 2.33),
    ("R9W", 1.64),
    ("A4P", 2.01),
    ("L2Q", 2.03),
    ("V16H", 2.26),
    ("L19M", 2.33),
]

Data origin: the supplement of paper PMC10567573
